Molecular target: T1, alpha-s1 casein from Bos taurus
T1 chain: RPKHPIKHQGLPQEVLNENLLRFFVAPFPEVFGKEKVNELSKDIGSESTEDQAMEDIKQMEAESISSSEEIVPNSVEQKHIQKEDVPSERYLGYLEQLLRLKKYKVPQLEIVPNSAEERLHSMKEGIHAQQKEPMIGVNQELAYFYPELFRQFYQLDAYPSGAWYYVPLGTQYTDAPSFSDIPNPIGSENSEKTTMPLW
ASSAY METRIC: αs1-I CN, 24 hours, 11° C. (Volume)
Kindly provide the numeric value in Volume only, without the unit symbol.

Recorded αs1-I CN, 24 hours, 11° C. (protein camel chymosin variant #146 (Q288G) (protein) GKVAREPLTSYLDSQYFGKIYIGTPPQEFTVVFDTGSSDLWVPSIYCKSNVCKNHHRFDPRKSSTFRNLGKPLSIHYGTGSMEGFLGYDTVTVSNIVDPNQTVGLSTEQPGEVFTYSEFDGILGLAYPSLASEYSVPVFDNMMDRHLVARDLFSVYMDRNGQGSMLTLGAIDPSYYTGSLHWVPVTLQQYWQFTVDSVTINGVAVACVGGCQAILDTGTSVLFGPSSDILKIQMAIGATENRYGEFDVNCGNLRSMPTVVFEINGRDYPLSPSAYTSKDQGFCTSGFGGDNNSELWILGDVFIREYYSVFDRANNRVGLAKAI ): 2.85e+07

Field αs1-I CN, 24 hours, 11° C. (entry camel chymosin variant #166 (I297T) (protein) GKVAREPLTSYLDSQYFGKIYIGTPPQEFTVVFDTGSSDLWVPSIYCKSNVCKNHHRFDPRKSSTFRNLGKPLSIHYGTGSMEGFLGYDTVTVSNIVDPNQTVGLSTEQPGEVFTYSEFDGILGLAYPSLASEYSVPVFDNMMDRHLVARDLFSVYMDRNGQGSMLTLGAIDPSYYTGSLHWVPVTLQQYWQFTVDSVTINGVAVACVGGCQAILDTGTSVLFGPSSDILKIQMAIGATENRYGEFDVNCGNLRSMPTVVFEINGRDYPLSPSAYTSKDQGFCTSGFQGDNNSELWTLGDVFIREYYSVFDRANNRVGLAKAI ) reads 1.33e+07

Sourced from patent US20150140169
